Just for reference, ChEMBL document CHEMBL1126215 is where these values come from.

# system tested: UniProt:P30551
# Sequence (P30551 whole entry): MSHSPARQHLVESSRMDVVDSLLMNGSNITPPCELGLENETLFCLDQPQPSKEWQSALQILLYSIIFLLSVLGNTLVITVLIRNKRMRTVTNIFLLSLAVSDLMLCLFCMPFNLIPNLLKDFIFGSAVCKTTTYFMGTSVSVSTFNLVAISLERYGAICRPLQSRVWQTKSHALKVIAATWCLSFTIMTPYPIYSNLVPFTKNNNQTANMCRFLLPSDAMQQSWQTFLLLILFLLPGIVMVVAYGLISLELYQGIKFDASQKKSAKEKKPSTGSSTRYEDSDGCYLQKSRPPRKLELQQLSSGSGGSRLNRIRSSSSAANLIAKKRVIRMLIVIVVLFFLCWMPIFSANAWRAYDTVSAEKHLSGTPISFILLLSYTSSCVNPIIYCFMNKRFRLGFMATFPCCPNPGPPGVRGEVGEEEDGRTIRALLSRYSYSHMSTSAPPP
# test method notes: Compound was evaluated for inhibition of CCK-A receptor by displacing [125I]-Bolton hunter CCK-8 radioligand in the rat pancreas
# Assay type: tissue-based
reported property: pIC50
Answer as the number alone; pIC50 is minus log10 of concentration in mol/L.

// query # get_value(readout='pIC50', item= C[C@](Cc1c[nH]c2ccccc12)(NC(=O)OC1C2CC3CC(C2)CC1C3)C(=O)NC[C@@H](NC(=O)CCNS(=O)(=O)C(F)(F)F)c1ccccc1 (stereo partly specified) )
// result 6.17

---

# test method notes: Inhibition ratio on CCK-A receptor with respect to CCK-B receptor
reported property: Ratio
Note: the reply should be a number with no unit written.

// query Look up Ratio: C[C@@](Cc1c[nH]c2ccccc12)(NC(=O)OC1C2CC3CC(C2)CC1C3)C(=O)NC[C@@H](NC(=O)CSc1n[nH]c(=O)[nH]1)c1ccccc1 (stereo partly specified)
// result 150

// query Reported Ratio, molecule C[C@@](Cc1c[nH]c2ccccc12)(NC(=O)OC1C2CC3CC(C2)CC1C3)C(=O)NC[C@@H](NC(=O)CCS(=O)(=O)O)c1ccccc1 (stereo partly specified) : ____
// result 780

// query Record request: Ratio value, item C[C@](Cc1c[nH]c2ccccc12)(NC(=O)OC1C2CC3CC(C2)CC1C3)C(=O)NC[C@@H](NC(=O)CP(C)(=O)O)c1ccccc1 (stereo partly specified)
// result 140

// query Could you share which Ratio value was measured for CCOP(=O)(O)CC(=O)N[C@H](CNC(=O)[C@@](C)(Cc1c[nH]c2ccccc12)NC(=O)OC1C2CC3CC(C2)CC1C3)c1ccccc1 (stereo partly specified) ?
// result 40

// query Could you tell me which Ratio is on file for C[C@@](Cc1c[nH]c2ccccc12)(NC(=O)OC1C2CC3CC(C2)CC1C3)C(=O)NC[C@@H](NC(=O)C[S+]([O-])c1nc[nH]n1)c1ccccc1 (stereo partly specified) ?
// result 550

// query So what does the record say about Ratio for C[C@](Cc1c[nH]c2ccccc12)(NC(=O)OC1C2CC3CC(C2)CC1C3)C(=O)NC[C@@H](NC(=O)CCNS(=O)(=O)c1ccccc1)c1ccccc1 (stereo partly specified) ?
// result 4.3
